B1: PDZK1 (parent)
chain: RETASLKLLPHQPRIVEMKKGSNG

Variants of: B1
Test: protein stability index of a GFP-peptide fusion (GPS, HEK-293T) (PSI 1-6); higher = more stable;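 note: lentivirally expressed fusions sorted by FACS into six bins by GFP to DsRed ratio, PSI derived from sequencing read proportions per bin multiplied by bin number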
Settings: c terminus: a fixed tail appended
# protein stability index per entry
I only need the number, thanks.

Task: Identify measured protein stability index associated with RETASLKLLPHQPRIVEMRKGSNG [K19R]
Result: 2.63

Task: Identify measured protein stability index associated with RETASLKPLPHQPRIVEMKKGSNG [L8P]
Result: 4.25

Task: Identify measured protein stability index associated with RETASLKLLPHQPRISEMKKGSNG [V16S]
Result: 3.92

Task: Identify measured protein stability index associated with RETASLKLLPHQPRIVEMKKESNG [G21E]
Result: 4.29

Task: Identify measured protein stability index associated with RETASLKLLPHQPRQVEMKKGSNG [I15Q]
Result: 4.72

Task: Identify measured protein stability index associated with RETASLKLLPCQPRIVEMKKGSNG [H11C]
Result: 3.47

Task: Identify measured protein stability index associated with RETASLKLLPHQPRIVEMKKGMNG [S22M]
Result: 3.85

Task: Identify measured protein stability index associated with RETASLKLLPHQPRIVEMKKGSNA [G24A]
Result: 4.52

Task: Identify measured protein stability index associated with RETASLKLLPWQPRIVEMKKGSNG [H11W]
Result: 3.29

Task: Identify measured protein stability index associated with RETASLKLLPHQPRIVEMKNGSNG [K20N]
Result: 4.28

Task: Identify measured protein stability index associated with RETASEKLLPHQPRIVEMKKGSNG [L6E]
Result: 3.95

Task: Identify measured protein stability index associated with RETASLKLLPHQPRIVEMWKGSNG [K19W]
Result: 3.14

Task: Identify measured protein stability index associated with RETASLKMLPHQPRIVEMKKGSNG [L8M]
Result: 2.75

Task: Identify measured protein stability index associated with RETAILKLLPHQPRIVEMKKGSNG [S5I]
Result: 2.82

Task: Identify measured protein stability index associated with RETASLKLLPHQPRIGEMKKGSNG [V16G]
Result: 4.85

Task: Identify measured protein stability index associated with RETASLYLLPHQPRIVEMKKGSNG [K7Y]
Result: 3.4

Task: Identify measured protein stability index associated with RETASSKLLPHQPRIVEMKKGSNG [L6S]
Result: 4.01

Task: Identify measured protein stability index associated with RETASLKLLPHQPRIVEWKKGSNG [M18W]
Result: 3.53

Task: Identify measured protein stability index associated with RETASLKLLPHQPRFVEMKKGSNG [I15F]
Result: 3.44
